System: U2OS
assay summary: Incucyte cell viability with U2OS; note: unitless GR value; below 1 slowed growth and below 0 cell loss
Type: toxicity, cell-based
protocol conditions: human, 6 h, 10 µM, compound concentration 10 uM, replicate number 1, timepoint 6 hours
property measured: Growth Rate

compound=Oc1c(CN2CCN(c3ccccn3)CC2)cc(Cl)c2cccnc12 reported_value=0.19
compound=CN(C)C(=O)Cn1cc(-c2ccc(-c3cncc4ccccc34)cc2)cn1 reported_value=0.31
compound=Nc1nc(Nc2ccccc2)nc2c1ncn2[C@@H]1O[C@H](CO)[C@@H](O)[C@H]1O reported_value=0.95
compound=CCCCC[C@H](O)/C=C/[C@H]1CCC(=O)[C@@H]1CCCCCCC(=O)O reported_value=0.51
compound=CCCCOCCOc1nc(-c2ccc(C(=O)O)c(F)c2)sc1C reported_value=0.21
compound="COC[C@@H](c1ccc(C(F)(F)F)cc1)N1CCN(C2(C)CCN(C(=O)c3c(C)ncnc3C)CC2)C[C@@H]1C.O=C(O)/C=C\\C(=O)O [VICRIVIROC MALEATE]" reported_value=0.58
compound="CN1C[C@H](C(=O)N[C@]2(C)O[C@@]3(O)[C@@H]4CCCN4C(=O)[C@H](Cc4ccccc4)N3C2=O)C[C@@H]2c3cccc4[nH]cc(c34)C[C@H]21.CS(=O)(=O)O [DIHYDROERGOTAMINE MESYLATE]" reported_value=0.44
compound=CCCCC1=NC2(CCCC2)C(=O)N1Cc1ccc(-c2ccccc2-c2nnn[nH]2)cc1 reported_value=0.3
compound="CCCCCCCC/C=C\\CCCCCCCC(N)=O [OLEAMIDE]" reported_value=0.78
compound=O=C(O)c1n[nH]c2c1C[C@H]1C[C@@H]21 reported_value=-0.58
compound=Cc1c(Cc2ccc3ccccc3n2)c2cc(F)ccc2n1CC(=O)O reported_value=0.37
compound=CS(=O)(=O)c1ccc(C(=O)Nc2ccc(Cl)c(-c3ccccn3)c2)c(Cl)c1 reported_value=0.94
compound=Cc1[nH]cnc1CN1CCc2c(c3ccccc3n2C)C1=O reported_value=0.03
compound="Cl.NCCc1ccc(O)c(O)c1 [DOPAMINE HYDROCHLORIDE]" reported_value=0.57
compound=COc1cc(OC2CCN(C(C)=O)CC2)ccc1C(=O)N1CCC(N2C(=O)OCc3ccccc32)CC1 reported_value=0.85
compound=O=C(c1cc(C2CC2)on1)N(C1CCCCC1)C1CCCCC1 reported_value=0.89
compound=CC[C@H](Nc1ncnc2[nH]cnc12)c1nc2cccc(F)c2c(=O)n1-c1ccccc1 reported_value=0.46
compound="CCCCCC(O)/C=C/[C@H]1C(=O)CC(O)C1C/C=C\\CCCC(=O)O (stereo partly drawn)" reported_value=0.59

###

Test system: HEK-293T
assay summary: Incucyte cell viability with HEK293T; note: unitless GR value; below 1 slowed growth and below 0 cell loss
Format: toxicity, cell-based
protocol conditions: human, 12 h, 10 µM, compound concentration 10 uM, replicate number 1, timepoint 12 hours
property measured: Growth Rate

compound=O=C([O-])[C@H]1O[C@H](OP(=O)([O-])OP(=O)([O-])OC[C@H]2O[C@@H](n3ccc(=O)[nH]c3=O)[C@H](O)[C@@H]2O)[C@H](O)[C@@H](O)[C@@H]1O.[Na+].[Na+].[Na+] reported_value=0.65
compound="O=C(O)CCCCCC[C@H]1C(=O)NC(=O)N1CCC(O)C1CCCCC1 (some centres undefined)" reported_value=0.73
compound=C(#Cc1cccc(CN2CCOCC2)c1)CCN1CCCCC1 reported_value=0.91
compound="Cl.NCCc1ccc(O)c(O)c1 [DOPAMINE HYDROCHLORIDE]" reported_value=0.97
compound=CC(C)(C)c1ccc(CSc2cnn(C(C)(C)C)c(=O)c2Cl)cc1 reported_value=0.01
compound=CCc1cc2c(cc1-c1cccc(S(=O)(=O)F)c1)C(C)(C)c1[nH]c3cc(C#N)ccc3c1C2=O reported_value=0.99
compound=CCc1nnc(NS(=O)(=O)c2ccc(NC(=S)NC(=O)/C=C/c3ccc(F)cc3)cc2)s1 reported_value=0.53
compound="Cl.Cl.NCCc1c[nH]cn1 [HISTAMINE DIHYDROCHLORIDE]" reported_value=0.79
compound=COc1cc(/C=C/C(=O)NCCn2c(C)cc3ccccc32)cc(OC)c1OC reported_value=0.61
